For each entry below, report its kon value.
target: T1, integrin αvβ3, purified from human placenta (human, UniProt P06756 31-1048; P05106 27-788); experiment: SPR (BIAcore), purified Fab over immobilized αvβ3
T1 construct: mature; Native heterodimer, immobilized on ELISA plates or on the BIAcore chip; biotinylated in capture lift and capture ELISA screens; also called αvβ3 receptor; vitronectin receptor
T1 sequence (P06756 31-1048, form in doubt, chain 1 of 2): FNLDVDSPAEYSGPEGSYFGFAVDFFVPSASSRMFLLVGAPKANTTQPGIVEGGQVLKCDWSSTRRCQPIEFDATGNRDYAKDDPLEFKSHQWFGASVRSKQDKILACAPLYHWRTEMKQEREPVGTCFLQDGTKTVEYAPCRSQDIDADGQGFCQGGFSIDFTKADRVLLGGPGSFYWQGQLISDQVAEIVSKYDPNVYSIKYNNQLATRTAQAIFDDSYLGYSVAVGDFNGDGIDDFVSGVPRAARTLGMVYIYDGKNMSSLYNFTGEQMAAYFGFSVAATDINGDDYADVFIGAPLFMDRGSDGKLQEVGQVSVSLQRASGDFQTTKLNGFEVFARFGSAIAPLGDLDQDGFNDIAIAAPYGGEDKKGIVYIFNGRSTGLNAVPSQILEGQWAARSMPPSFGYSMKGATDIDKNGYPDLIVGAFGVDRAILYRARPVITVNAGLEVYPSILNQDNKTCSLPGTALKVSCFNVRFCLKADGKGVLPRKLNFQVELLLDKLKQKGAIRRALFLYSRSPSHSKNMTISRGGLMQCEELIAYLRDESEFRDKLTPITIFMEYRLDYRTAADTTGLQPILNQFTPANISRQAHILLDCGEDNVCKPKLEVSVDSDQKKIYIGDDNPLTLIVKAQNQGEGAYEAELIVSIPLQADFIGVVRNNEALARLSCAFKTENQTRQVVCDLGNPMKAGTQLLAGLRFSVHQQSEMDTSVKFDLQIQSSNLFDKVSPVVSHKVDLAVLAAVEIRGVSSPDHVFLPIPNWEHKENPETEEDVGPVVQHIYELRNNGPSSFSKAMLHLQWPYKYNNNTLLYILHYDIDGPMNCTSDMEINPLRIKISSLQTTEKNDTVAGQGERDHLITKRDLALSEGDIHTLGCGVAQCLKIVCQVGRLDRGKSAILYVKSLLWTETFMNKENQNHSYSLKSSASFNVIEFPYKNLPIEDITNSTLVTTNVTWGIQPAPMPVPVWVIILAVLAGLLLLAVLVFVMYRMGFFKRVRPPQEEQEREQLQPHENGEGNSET
T1 sequence (P05106 27-788, form in doubt, chain 2 of 2): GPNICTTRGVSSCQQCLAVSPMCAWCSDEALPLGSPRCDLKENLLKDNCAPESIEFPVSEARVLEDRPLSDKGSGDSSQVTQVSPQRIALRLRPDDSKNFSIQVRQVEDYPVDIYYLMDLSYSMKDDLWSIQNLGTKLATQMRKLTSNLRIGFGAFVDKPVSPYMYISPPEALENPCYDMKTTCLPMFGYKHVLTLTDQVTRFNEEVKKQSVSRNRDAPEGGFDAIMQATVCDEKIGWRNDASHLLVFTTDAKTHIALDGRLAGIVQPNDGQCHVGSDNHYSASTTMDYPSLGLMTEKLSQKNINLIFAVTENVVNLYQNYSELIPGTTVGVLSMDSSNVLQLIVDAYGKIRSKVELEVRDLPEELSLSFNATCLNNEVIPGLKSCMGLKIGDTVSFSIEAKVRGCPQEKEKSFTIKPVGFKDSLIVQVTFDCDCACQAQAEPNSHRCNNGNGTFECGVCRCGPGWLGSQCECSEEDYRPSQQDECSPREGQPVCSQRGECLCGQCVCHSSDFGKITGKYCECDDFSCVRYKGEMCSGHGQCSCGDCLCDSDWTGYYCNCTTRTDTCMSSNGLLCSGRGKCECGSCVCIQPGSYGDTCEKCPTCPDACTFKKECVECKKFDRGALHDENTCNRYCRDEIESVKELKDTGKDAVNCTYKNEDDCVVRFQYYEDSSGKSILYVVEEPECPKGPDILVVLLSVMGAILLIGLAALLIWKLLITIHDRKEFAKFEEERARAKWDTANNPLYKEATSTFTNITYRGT

Known kon results, listed for orientation:
LM609 grafted antibody variant G102 (Fab, V domains shown, Fab; also called clone G102) VH: QVQLVESGGGVVQPGRSLRLSCAASGFTFSSYDMSWVRQAPGKGLEWVAKVSSGGGSTYYLDTVQGRFTISRDNSKNTLYLQMNSLRAEDTAVYYCARHNYGSFAGWGQGTTVTVSS VL: EIVLTQSPATLSLSPGERATLSCQASQSISNHLHWYQQRPGQAPRLLIRYRSQSISGIPARFSGSGSGTDFTLTISSLEPEDFAVYYCQQSGSWPHTFGGGTKVEIK :: 161000 M⁻¹ s⁻¹
LM609 grafted antibody variant A102 (Fab, V domains shown, Fab) VH: QVQLVESGGGVVQPGRSLRLSCAASGFTFSSYDMSWVRQAPGKGLEWVAKVSSGGGSTYYLDTVQGRFTISRDNSKNTLYLQMNSLRAEDTAVYYCARHNYGSFAAWGQGTTVTVSS VL: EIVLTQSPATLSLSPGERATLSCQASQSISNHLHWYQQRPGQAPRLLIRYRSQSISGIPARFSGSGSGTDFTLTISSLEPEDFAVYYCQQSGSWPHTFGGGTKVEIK :: 275000 M⁻¹ s⁻¹
LM609 grafted antibody variant Y101 (Fab, V domains shown, Fab) VH: QVQLVESGGGVVQPGRSLRLSCAASGFTFSSYDMSWVRQAPGKGLEWVAKVSSGGGSTYYLDTVQGRFTISRDNSKNTLYLQMNSLRAEDTAVYYCARHNYGSFYYWGQGTTVTVSS VL: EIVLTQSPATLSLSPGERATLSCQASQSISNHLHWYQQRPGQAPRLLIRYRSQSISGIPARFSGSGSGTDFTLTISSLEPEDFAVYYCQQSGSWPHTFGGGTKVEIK :: 218000 M⁻¹ s⁻¹

Now look at this entry.
Quick check: kon of LM609 grafted antibody variant Y100 (Fab, V domains shown, Fab) VH: QVQLVESGGGVVQPGRSLRLSCAASGFTFSSYDMSWVRQAPGKGLEWVAKVSSGGGSTYYLDTVQGRFTISRDNSKNTLYLQMNSLRAEDTAVYYCARHNYGSYAYWGQGTTVTVSS VL: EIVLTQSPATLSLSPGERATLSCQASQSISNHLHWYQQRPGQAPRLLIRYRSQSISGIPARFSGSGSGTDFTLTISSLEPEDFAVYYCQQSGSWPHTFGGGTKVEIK ?
175000 M⁻¹ s⁻¹
